// provenance: PubChem BioAssay (NCI)

# System: OVCAR-4 ovarian
# measurement-protocol: NCI-60 one-dose screen, 48 h
# measurement-context: 10 µM unless noted
# Protocol: Growth inhibition of the OVCAR-4 human tumor cell line is measured as a screen for anti-cancer activity. Cells are grown in 96 well plates and exposed to the test compound for 48 hours. Compounds are tested at a single concentration, which is 10^-5 M for most compounds. The reported endpoint is percent growth (GI% or GIPRCNT), where numbers from 0 - 100% represent growth inhibition, and numbers from -100% - 0 represent cell death. For example, a value of 40 represents 60% growth inhibition. […]
Compounds without any hit were thinned out: in the full panel of roughly 83,000, 20% have a hit. Calls of active or inactive are those of the source. The calls were made as follows: active = growth percent below 10; inactive = the rest.
Outcomes: yes = active, no = inactive

NC(N)=Nc1ccc(Oc2cccc(Nc3ccc(Cl)cc3)c2)cn1
no
O=C(CNc1nc(-c2cccc([N+](=O)[O-])c2)cs1)Nc1cccc(Cl)c1
no
CCNC(=O)N1CCc2cc(OC)c(OCCc3ccc(OC)nc3)cc2C1c1ccc(C)cc1C (stereo not drawn)
no
COc1ccc(/C=C(/C)c2ccc3ccc(OC)cc3[o+]2)c(O)c1
no
C=CCn1c(SCC(=O)Nc2ccc(C(=O)/C=C/c3ccc(Br)cc3)cc2)nnc1-c1c[nH]c2ccccc12
no
CCn1c2ccccc2c2cc(-n3nncc3-c3ccccc3)ccc21
no
O=S(=O)(Nc1ccc(I)cc1Cl)c1ccc(-c2cnc(C3CC3)o2)cc1
no
NC(N)=Nc1ccc(Oc2ccc(Nc3ccc(Cl)c(C(F)(F)F)c3)cc2)cc1
no
COc1cc2nc(Cl)nc(Nc3cccc(C4=Nc5c(N)nc(N)nc5NC(c5ccc(Br)cc5)C4)c3)c2cc1OC (stereo not drawn)
no
C=C(C=O)[C@@H]1CC[C@]2(COC(C)=O)CC[C@]3(C)C(CC[C@@H]4[C@@]5(C)CC[C@H](OC(C)=O)C(C)(C)[C@@H]5CC[C@]43C)[C@@H]12 (stereo partly drawn)
no
O=C(CN1CCN(c2cc(=O)n(-c3ccccc3)c3ccccc23)CC1)Nc1nc(-c2ccccc2)cs1
no
CCc1nn2c(C)cc(C)nc2c1Cc1ccc(/C=C/CN2CCN(CCOCCOCCN3CCN(C/C=C/c4ccc(Cc5c(CC)nn6c(C)cc(C)nc56)cc4)CC3)CC2)cc1
no
Cc1ccc(-c2cc3nc(C(Cl)Cl)nc(C)n3n2)cc1
no
CNC(=O)c1cc(-c2ccc(NC(=S)Nc3cc(C(F)(F)F)cc(C(F)(F)F)c3)cc2)nc2cccnc12
no
NC(N)=Nc1ccc(Oc2cccc(Nc3ccc(Br)c(C(F)(F)F)c3)c2)cn1
yes
COc1cccc(O)c1/C=C(/C)c1ccc2c(OC)cccc2[o+]1
no
Cn1ccnc1C(=O)/C=C/C=C/c1ccc(C(=O)Nc2ccc(F)cc2)cc1
no
O=C(CSc1nc2ccccc2c(=O)n1-c1ccc(Cl)cc1)N/N=C/c1ccc(N2CCCCC2)cc1
no
COc1cc2oc(-c3cccc(NC(=O)c4cc(N)ccc4Cl)c3)cc(=O)c2c(OC)c1OC
no
Nc1nc(-c2cccc([N+](=O)[O-])c2)c(N=Nc2ccc([N+](=O)[O-])cc2Cl)s1
no
COc1ccccc1C(=O)Nc1cccc2c1C(=O)C(=O)C=C2
no
NC(N)=Nc1ccc(Nc2cccc(Oc3ccc(Cl)c(C(F)(F)F)c3)c2)cn1
no
O=c1[nH]c(Sc2sc3ccc(Cl)cc3c2CBr)nc(=S)[nH]1
no
CN(C)CCNC(=O)c1ccc(-c2nc3ccc4[nH]ncc4c3c3c2COCC3)cc1
yes
CCO/C=N/C1=C(C#N)C(c2ccc(OC)cc2)c2sc3c(C)cccc3c2O1 (stereo not drawn)
no
COc1ccc(NC2=C(Cl)C(=O)c3nc(C)ccc3C2=O)cc1OC
no
Cc1cc(C)c(N2C(=O)CC(Nc3ccc(Cl)cc3Cl)C2=O)c(C)c1 (stereo not drawn)
no
O=C(NNc1nc2cc(F)c(F)cc2n2c(CN3CC4CNCC4C3)ccc12)c1ncccn1 (stereo not drawn)
no
COc1cc(OC)cc(C(=O)Nc2cccc(C#Cc3cccc4[nH]nc(N)c34)c2)c1
no
COc1cc2nc(Cl)nc(Nc3cccc(C4=Nc5c(N)nc(N)nc5NC(c5ccc(F)cc5)C4)c3)c2cc1OC (stereo not drawn)
no
COc1c(N2CC3CCCNC3C2)c(F)cc2c(=O)c(C(=O)N/N=C/c3ccccc3)cn(C3CC3)c12 (stereo not drawn)
no
COc1cccc(/C=C(/C)c2ccc3cccc(OC)c3[o+]2)c1O
no
CC(Nc1c(C#N)cnc2ccc(-c3cnc(N)nc3)cc12)c1ccccc1 (stereo not drawn)
no
NS(=O)(=O)c1ccc(Nc2nc(SCC(=O)c3ccc(Cl)cc3)nc3c2CCCC3)cc1
no
NC(N)=Nc1ccc(Oc2cccc(NC(N)=Nc3ccc(I)cc3F)c2)cn1
no
Nc1ncc(-c2ccc3ncnc(Nc4cccc(Cl)c4F)c3c2)cn1
no
COc1ccc2[nH]cc(/C=N/Nc3nc4ccccc4s3)c2c1
no
CCOC(=O)c1c(NC(=O)c2ccccc2C(F)(F)F)sc2c1CCC(=O)C2
no
